- system: GR LBD (ligand binding domain) (Homo sapiens, UniProt P04150)
- Sequence (P04150 524-758 limits assumed): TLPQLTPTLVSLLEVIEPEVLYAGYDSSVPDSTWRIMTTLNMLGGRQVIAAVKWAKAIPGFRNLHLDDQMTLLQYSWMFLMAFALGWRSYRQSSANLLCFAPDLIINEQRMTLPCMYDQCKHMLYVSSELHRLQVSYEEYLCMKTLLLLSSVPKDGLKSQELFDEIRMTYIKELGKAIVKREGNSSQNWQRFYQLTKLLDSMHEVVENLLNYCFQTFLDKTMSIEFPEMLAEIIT
- assay_procedure: GR Reporter Assay (pBind assay, pG5luc luciferase reporter, agonist mode)
- conditions_used: HEK293 cells transiently transfected with pG5luc and GR LBD
- Experimental: The assay is a pBind assay following the general principle outlined below. 2×10^4 HEK293 cells/96-well are transiently transfected with pG5luc and GR LBD 1:1 at 50 ng/well. GR LBD (ligand binding domain) is a […] fusion protein (used to yeast GAL4) and upon binding to the test article will bind the luciferase reporter and activate transcription of luciferase. Upon addition of a substrate, the luciferase activity can be measured and corresponds to the activity of the test article. […]
reported_metric: EC50

Guide cases for EC50, answers given:
# compound, system, EC50
records = [
    ("C[C@]12C=CC(=O)C=C1CC[C@H]1[C@@H]3C[C@H]4O[C@@H](c5cccc(N)c5)O[C@@]4(C(=O)CF)[C@@]3(C)C[C@H](O)[C@@]12F", "GR LBD (ligand binding domain) (Homo sapiens, UniProt P04150)", "< 5 nM"),
    ("C[C@]12C=CC(=O)C=C1CC[C@@H]1[C@@H]2[C@@H](O)C[C@@]2(C)[C@H]1C[C@H]1O[C@@H](c3ccc(Cc4cccc(N)c4)cc3)O[C@]12C(=O)CF", "GR LBD (ligand binding domain) (Homo sapiens, UniProt P04150)", "< 5 nM"),
    ("C[C@@H]1C[C@H]2[C@@H]3C[C@H](F)C4=CC(=O)C=C[C@]4(C)[C@@]3(F)[C@@H](O)C[C@]2(C)[C@@]1(OC(=O)c1ccco1)C(=O)NCCOc1ccc(N)cc1", "GR LBD (ligand binding domain) (Homo sapiens, UniProt P04150)", "< 5 nM"),
    ("CNC(=O)[C@@]1(OC(=O)c2ccc(N)cc2)[C@H](C)C[C@H]2[C@@H]3C[C@H](F)C4=CC(=O)C=C[C@]4(C)[C@@]3(F)[C@@H](O)C[C@@]21C", "GR LBD (ligand binding domain) (Homo sapiens, UniProt P04150)", "> 30 nM"),
    ("C[C@@H]1C[C@H]2[C@@H]3CCC4=CC(=O)C=C[C@]4(C)[C@@]3(F)[C@@H](O)C[C@]2(C)[C@@]1(OC(=O)c1cccc(N)c1)C(=O)N(C)C", "GR LBD (ligand binding domain) (Homo sapiens, UniProt P04150)", "< 5 nM"),
    ("C[C@@H]1C[C@H]2[C@@H]3C[C@H](F)C4=CC(=O)C=C[C@]4(C)[C@@]3(F)[C@@H](O)C[C@]2(C)[C@@]1(OC(=O)c1cccc(N)c1)C(=O)N1CCOCC1", "GR LBD (ligand binding domain) (Homo sapiens, UniProt P04150)", "> 30 nM"),
    ("C[C@@H]1C[C@H]2[C@@H]3C[C@H](F)C4=CC(=O)C=C[C@]4(C)[C@@]3(F)[C@@H](O)C[C@]2(C)[C@@]1(OC(=O)c1cccc(N)c1)C(=O)N(C)CC(O)CO (some centres unmarked)", "GR LBD (ligand binding domain) (Homo sapiens, UniProt P04150)", "> 30 nM"),
    ("CN(C)C(=O)[C@@]12O[C@H](c3cccc(Cc4cccc(N)c4)c3)O[C@@H]1C[C@H]1[C@@H]3CCC4=CC(=O)C=C[C@]4(C)[C@H]3[C@@H](O)C[C@@]12C", "GR LBD (ligand binding domain) (Homo sapiens, UniProt P04150)", "< 5 nM"),
    ("C[C@]12C=CC(=O)C=C1CC[C@H]1[C@@H]3C[C@H]4O[C@@H](c5cccc(N)c5)O[C@@]4(C(=O)CCl)[C@@]3(C)C[C@H](O)[C@@]12F", "GR LBD (ligand binding domain) (Homo sapiens, UniProt P04150)", "< 5 nM"),
    ("C[C@@H]1C[C@H]2[C@@H]3C[C@H](F)C4=CC(=O)C=C[C@]4(C)[C@@]3(F)[C@@H](O)C[C@]2(C)[C@@]1(OC(=O)c1ccc(N)cc1)C(=O)N(C)C", "GR LBD (ligand binding domain) (Homo sapiens, UniProt P04150)", "< 5 nM"),
]

Would you mind telling me what EC50 value was observed for CNC(=O)[C@@]1(OC(=O)c2cccc(N)c2)[C@H](C)C[C@H]2[C@@H]3C[C@H](F)C4=CC(=O)C=C[C@]4(C)[C@@]3(F)[C@@H](O)C[C@@]21C ? > 30 nM

Query C[C@]12C=CC(=O)C=C1CC[C@H]1[C@@H]3C[C@H]4O[C@H](c5cccc(N)c5)O[C@@]4(C(=O)CCl)[C@@]3(C)C[C@H](O)[C@@]12F next < 5 nM

Query C[C@@H]1C[C@H]2[C@@H]3C[C@H](F)C4=CC(=O)C=C[C@]4(C)[C@@]3(F)[C@@H](O)C[C@]2(C)[C@@]1(OC(=O)c1cccc(N)c1)C(=O)N1CCCC1 next > 30 nM

Query C[C@@H]1C[C@H]2[C@@H]3C[C@H](F)C4=CC(=O)C=C[C@]4(C)[C@@]3(F)[C@@H](O)C[C@]2(C)[C@@]1(OC(=O)c1cccc(N)c1)C(=O)NCCO next > 30 nM

Query C[C@@H]1C[C@H]2[C@@H]3C[C@H](F)C4=CC(=O)C=C[C@]4(C)[C@@]3(F)[C@@H](O)C[C@]2(C)[C@@]1(OC(=O)c1cccc(N)c1)C(=O)N1CC(CO)C1 next > 30 nM

Query C[C@@H]1C[C@H]2[C@@H]3C[C@H](F)C4=CC(=O)C=C[C@]4(C)[C@@]3(F)[C@@H](O)C[C@]2(C)[C@@]1(OC(=O)c1cccc(N)c1)C(=O)N(C)CCO next > 30 nM

Query C[C@@H]1C[C@H]2[C@@H]3C[C@H](F)C4=CC(=O)C=C[C@]4(C)[C@@]3(F)[C@@H](O)C[C@]2(C)[C@@]1(OC(=O)c1cccc(N)c1)C(=O)N(C)C next < 5 nM
